In this section we review reported apparent KD of MS2 coat protein values for a set of sequences.
# System: MS2 coat protein
# assay.notes: apparent KD of MS2 coat protein; higher = weaker reporter binding
# condition.info: Eterna round: R107; input ligand: theophylline 20 uM

sequence.code	apparent KD of MS2 coat protein [nM]
ACACAUGAGGAUCACCCAUGUUCAAUAGAUACCAGUGAUACGGUGCACCCUUGGCAGCUGUUGCUGAGUGAUGGUUCCCUCGGUA [#23 SameState-TheophyllineA]	53.9
UCGGGCAGAGCGGCCGCCACUGUUUGGCAUGCGGAUGAAGGAACAUGAGGAUCACCCAUGUAGAUUAGGACCGGGCUUGCGGAGA [rvcmullin]	22.1
UUAUAAGUACCGGUCCUCAGAUCCUCAUGACGAGGACCGGUACGGCCGCCACUCGAAACAUGAGGAUCACCCAUGUAAUAAUAAC [Brourdmod04]	92.1
GGCCGAAACGGCCAAGGUAUCAUGACCGAUACCAGCGAAGAAGAACGCCCUUGGCAGCGGACAUGAGGAUCACCCAUGUAAAGAA	38.3
GGUGGCUGGACUGAUACCAGCCACCACCGAUAGACCACAUGAGGAUCACCCAUGUUGGGUGGCCCUUGGCAGCAGUCCAGCUGCC [#1 Same State - Theophylline B Attempt #10 (HarryS)]	374
AGAUGUAGCGGAAGGAGCGACAAGAGGAUCACCCUUGUCUCCCGUUGUGGGAGUUCCUUAGGUCAGGUAGGUCGCCGUUACGUCA [Omei Arg B SS B v4]	38.4
UGUAUGGACUGAAGGAGCGCCUCAAAAUAUCAUGAGGAUCACCCAUGGAAGGCGAAAGCCGGGCAGGUAGGUCGCAGUCCAUACU [ArgBX 3]	19.1
UCAGAUGAGGCGGCCGCCACUCGCGGAUAACGAUAGAUUAACAUGAGGAUCACCCAUGUGUCAUGGAGGACCGGGCCCAUGACAU [kjmullin]	42.3
CGUCGAAACUGAAGGAGCGAGAUGACAACAUUGGGUCUAACAUGAGGAUCACCCAUGUAAUCUCAGGUAGGUCGCGGUGUCAACA [Exclusion Arginine B GF18]	86.3
GCUUGGGUGGCCCAGCCCUGGCAGGGCGAUACCAGCACGGUAACGUGCCCUUGGCAGCGCACAUGAGGAUCACCCAUGUGGUGCG [#1 Exclusion - Theophylline A Attempt #27 (HarryS)]	161
GCAUCCUAGUCGGCCGCCACUGCAACAUGAGGAUCACCCAUGUCUGUAUGUGAUCCAUGCAGUAGCAGGACCGGGACUAGGAUGC [(T1)-(M1)-(M2)-(T)''-(M)'-(T)'-(T2)_Design3_2/18/17]	467

* * *

# Test system: MS2 coat protein
# assay.notes: apparent KD of MS2 coat protein; designed switch direction (-1 OFF switch, 1 ON switch): -1; higher = weaker reporter binding
# condition.info: input ligand: FMN 200 uM
Hi, to clarify the labels: T covers apparent KD of MS2 coat protein from 50 nM upward, F covers anything below 50 nM.

sequence.code	category
UUUUUCUGGCAAGGAUAUCCUGUGCGGUUCCGGCUCGUGUCUGUUACAUGAGGAUCACCCAUGUGGGAGAAGGUGCCUGUGGUU [Design 88] (Eterna round: R96, puzzle: Exclusion NG 2)	T
GAUUGACAUGAGGAUCACCCAUGUGAGGAUAUCGGCUGGACCGUGUUGGCUUCCGUCUCGAGAAGGCGCAUAGG [Exclusion 1 V43] (Eterna round: R96, puzzle: Exclusion 1)	F
GGCCUGUGAGGAUAUUAGUAGUAGAUAAAAUAAACUAUUACUGAGAAGGCACAUGAGGAUCACCCAUGUUGGCC [Eli x4 4.05] (Eterna round: R97, puzzle: Exclusion 4)	F
UAAAAGCUAGGAUAUACUGGCACACAACUCAUAAAUUCAAGACAUGAGGAUCACCCAUGUAGAAGGAGCAAAUA [EX2 A.3] (Eterna round: R97, puzzle: Exclusion 2)	T
GUGAGCAGACGGAGAUCCAACAUGAGGAUCACCCAUGUCUCACUAGCUUUUUGCUCGUCUUAUCCUCCUCUGUUCAC [Elimod 23 - Jieux - Sensor, turn-off variant 1] (Eterna round: R97, puzzle: Sensor, turn-off variant 1)	F
UUAAUUAGCUCGCUAGAUCCUCACAUGAGGAUCACCCAUGUGCAGGAUAUCAGCUCGUGUAGAGCUGAGAAGGGCACUGCGAGC [ExNG3/10-A3] (Eterna round: R96, puzzle: Exclusion NG 3)	T
GGACGGUUAGUUAGGAUAUGCUCUACCUCGGUAGAGCAGAAGGGACAUGAGGAUCACCCAUGUGAUAACUGUUC [Omei Ex4B B35] (Eterna round: R97, puzzle: Brourd's mod of Exclusion 4)	F

* * *

# Tested on: MS2 coat protein
# assay.notes: apparent KD of MS2 coat protein; designed switch direction (-1 OFF switch, 1 ON switch): -1; higher = weaker reporter binding
# condition.info: input ligand: microRNA oligo, concentration not stated
In this section we review reported apparent KD of MS2 coat protein values for a set of sequences.

sequence.code	assay.target	apparent KD of MS2 coat protein
UAUAUAUAGUAAGGAUAUGUAUUAAUUUGAUAAACAGAAGGUACUGACAUGAGGAUCACCCAUGUUUUAGUGUGGGCAUGUAGA [JMF's solution 84] (Eterna round: R96, puzzle: Exclusion NG 1)	MS2 coat protein	75.6 nM
UGUUGUUACGCAGGAUAUGAGGAUCACCCAUAUCAGGAUAUCGAAAGAGAAUUUCUGAGGAUCACCCAGAAGGGCGGGUUAACA [pwkr exNG2 2xF5 2xFMN.37] (Eterna round: R96, puzzle: Exclusion NG 2)	MS2 coat protein	40.3 nM
CAUGAUUGGCGAGGAUAUUGAUCUAGUUGGCGACGAGAAGGCGCCUGUCACAUGAGGAUCACCCAUGUGAAUCUGGUGGAUGAG [Ex NG1 #88] (Eterna round: R96, puzzle: Exclusion NG 1)	MS2 coat protein	18.4 nM
CAACCGAAUCAGUGAAUGCCGACAUGAGGAUCACCCAUGUGUGAGGAUAUUUUAGUAGAGAACUAAAAGAAGGCACCUGGAAAG [Eternabot solution 20] (Eterna round: R96, puzzle: Exclusion NG 3)	MS2 coat protein	22.4 nM

* * *

In this section we review reported apparent KD of MS2 coat protein values for a set of sequences.
# Test system: MS2 coat protein
# assay.notes: apparent KD of MS2 coat protein; designed switch direction (-1 OFF switch, 1 ON switch): 1; higher = weaker reporter binding
# condition.info: input ligand: none

sequence.code	apparent KD of MS2 coat protein
CCGGUUUAUGGAGGAUAUGGAGCCUUAUUGGCUCCAGAAGGCUAAUAACAUGAGGAUCACCCAUGUCCGGCGGUCAAUAGACCG [Eli NG1ss - 57] (Eterna round: R96, puzzle: Same State NG 1)	90.5 nM
AUUAUUUCAUGAGGAUAUGGCACCUUAUUGGUGCCAGAAGGCAUGUCUAUUGACAUGAGGAUCACCCAUGUAUUAUAUUAUAUA [Eli NG1ss - 88] (Eterna round: R96, puzzle: Same State NG 1)	493 nM
GCUAGAAAUAAAGCCAACAUGAGGAUCACCCAUGUAUGUUGGCAGGAUAUCGUUUGCAAAGCAAACGAGAAGGGCUAAACUAGC [Mat - Same State NG 3 - JL Mod - D5] (Eterna round: R96, puzzle: Same State NG 3)	147 nM

* * *

# Tested on: K4 kissing-loop RNA reporter
# assay.notes: apparent KD of K4 kissing-loop reporter; higher = weaker reporter binding
# condition.info: Eterna round: R107; input ligand: FMN 200 uM

sequence.code	assay.target	unit.info	apparent KD of K4 kissing-loop reporter
UGACUGGAUGGAAGGAGCGCUAAACUCCUAGUGAUGUUAGGGAUACGAGGCAAAGCCUCGAGGCAGGUAGGUCGCCAUCUAGUCU [FiskerMod 24 - Jieux - Same State - Arginine B]	K4 kissing-loop RNA reporter	nM	167
CAAAUAUGCGGUAGGUUCAAGCGCUGGGAAGGAGCGCAGAUGACUGCAGGUAGGUCGCCCAGUGAUGUUGGGCUUUCCACCUAUG [Esisusa]	K4 kissing-loop RNA reporter	nM	132
UCUGUUGUAUAUGAUACCAGCAGUGAGAGACAGGAAGUAUAGUGAUGUUAUAUGAGAGAAUGCCCUUGGCAGCGUGUGCGGGUGG [SSTheophylB.X]	K4 kissing-loop RNA reporter	nM	138
CUGACGCUGAUACGGUGGCCGAUGGUCGUGCGAGGACCGGUACGGCCGCCACUCGCAUGAGUGAUGUUCAUGUGUCGUCGUCGUC [#06 K4 Tryptophan A Exclusion]	K4 kissing-loop RNA reporter	nM	135

* * *

# Test system: K4 kissing-loop RNA reporter;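 note: bound reporter read as fluorescence of individual clusters on recovered sequencing chips by microscopy, with normalized cluster intensities fitted with a binding model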
# assay.notes: apparent KD of K4 kissing-loop reporter; higher = weaker reporter binding
# condition.info: Eterna round: R107; input ligand: theophylline 20 uM
In this section we review reported apparent KD of K4 kissing-loop reporter values for a set of sequences.

sequence.code	apparent KD of K4 kissing-loop reporter (nM)
GGUAGCAUGGCGGCCGCCACUCUUCAUUAGUGAUGUUAAUGCCGAGUGCGCUAACUCCUACGGGAGAGGACCGGGCCAUGCUACC	919
CCUCACGUAGGACUAGUGAUGUUAGACUACCGAGGACCGGUACGGCCGCCACUCGUCGUACAAGAUAACCUUCCGCCAGUAUACA	83.6
GGUUCUGGUUUGGAGUGAUGUUCUAAGUGGCAGGAUAUGGAGAGAUCCAGAAGGGCCGUUUGUAUCUUUUUUGUGUGGUUUUUUU [Last Minute #2]	206
GGGUGGCAGGCGGCCGCCACUCUGAGCAGCCAGUGAGUGAUGUUCGUGGCGGAAGAAUGUUCGUAGAGGACCGGGUUUGUUGUUC [Same State Tryptophan B GF 22]	432
GGACCACCAGUGAUGUUGGAGAUAAACUCCAAGGAUAUGACGAAAGUCAGAAGGUGGUAAUAAGACGUCAAAGACGUCAGGUCCA [FmnA 20 #SwitchBubble #K4Early]	209
CACUUACGUAGUGAUGUUACGAUCUCUGAUACCAGACAACUCUAAGUCCCUUGGCAGCAGUCAUUUUGCUUCAAAUUUACUCAAA [JR_ExcTheophyA_Sub013]	661
ACUACGAAGACGGCCGCCACUGAUAUUCGUAGAUCCAUCAUUGCAUGAGUGAUGUUCAUGUAUAUCAGGACCGGGUCAAGAUGGU [KL-XTryp-B18 #analogue]	282
ACCUACCAUUAGUGAUGUUAAUGGACGGAAGGAGCGCGGAUAUCUGCAGGUAGGUCGCCGAAGGCUAGACAUUGUCUAGCCAUUA [AK1 SS Arginine A]	107
CCGCUACCCUCAGGAUAUUAAAUAUUAGUGAUGUUAAUAAACCGAUGGCGAAAGCCAUCGGUAUGUUAAGAAGGGAGGGUAGCGG	949
CCUAUCUCGUACGAUACCAGACUAUGAUCUUUGAUCAAUGCCAUCACCGAGUGAUGUUCGGUCCCUUGGCAGCGUAUGAGAUGGG [#12 K4 Theophylline B Exclusion]	202
CGCAGUGAUGUUGCGAAUAUAAUAACGGAAGGAGCGCGUGAAAACGCAGGUAGGUCGCCGUUUGGUAUGAUGGAAACAUCGUACC [Arginine A K4 11]	106
AGCUCAGAGUGACUCGAUAAGAGUCACAAACGAGGACCGGUACGGCCGCCACUCGAAAUAAGGAGAGUGAUGUUCUCGCUGAGCA [FiskerMod 8 - Jieux - Same State Tryptophan A]	35.1
CGAGUGAUGUUCGUUCGUUUAUUUCGGUGACAGGAUAUGCGGAAACGCAGAAGGGUCACCUUUGGGUUACCGGAAUUAACGUUAU [Ex FMN A 30]	414
UUGAUAUGAUAGUAUCCUGUUUGAUAAAGGCAGGAUAUCGAAAAUUCGAGAAGGGCCAUUAUAUGCAGUGAUGUUGCAAAUAAGU [Exclusion FMN A Gf 24]	69
UAAUUUAUGUCUUUAAUUUUAUUAUCAGAUACCAGUGAUUUAUGACACCCUUGGCAGCUGUAUUGAGUGAUGUUCUUAUAUUAAA [JR_Nu_ExcTheophyA_Sub023]	190
